Tested on: SRS-A
Assay: Anti-SRS-A action (SRS-A induced shrinkage of guinea pig ileus)
Parameters: species or system guinea pig (Hartley strain male)
Settings: 10^-6 M, treated five minutes before SRS-A (20 units), 5 min, 1 µM
experimental readout: SRS-A Inhibition Ratio % 10^-6 M (%)
Write the value in % as a bare number.

Guide cases for SRS-A Inhibition Ratio % 10^-6 M, answers given:
[
  {
    "compound": "CCOc1ccccc1-c1oc2c(C(=O)O)cccc2c(=O)c1C [Example 16]",
    "measurement units": "%",
    "SRS-A Inhibition Ratio % 10^-6 M": 14.8
  },
  {
    "compound": "CCN(CC)C(=O)c1cccc2c(=O)c(C)c(-c3ccc(OC)c(OC)c3OC)oc12 [Example 30]",
    "measurement units": "%",
    "SRS-A Inhibition Ratio % 10^-6 M": 31.0
  }
]

Please turn your attention to the following entry.
Value lookup for SRS-A Inhibition Ratio % 10^-6 M; key = CCOC(=O)c1cccc2c(=O)c(C)c(-c3ccc(OC)c(OC)c3OC)oc12 [Example 31]
63.0
